System: HPPD polypeptides (wild-type SEQ ID NO:1 and mutants)
Settings: total change in signal in presence of 50 μM Cmpd. 1, normalised to that without inhibitor; low substrate concentration
Protocol: For the generation of crude HPPD polypeptide extract in micro titer plates (MTP) for the determination of residual activity in inhibition assays, cells were grown in 40 or 150 μl LB medium containing 1% Glucose (Merck, Darmstadt, Germany) and 100 μg/ml ampicillin in a standard 96 well plate (Thermo Fisher Scientific, Waltham, USA) incubated for about 18 h in a humidity incubator at 37° C. […]
Kindly supply the reported Residual turnover values for the records listed here.
Numbers only, in %.

QUERY: Record request: Residual turnover value, item 38 (protein, mutant HPPD polypeptide) MADLYENPMGLMGFEFIEFASPTPGTLEPIFEIMGFTKVATHRSKNVHLYRQGEINLILNNEPNSIASYFAAEHGPSVCGMAFRVKDSQKAYNRALELGAQPIHIDTGPMELNLPAIKGIGGAPLYLIDRFGEGSSIYDIDFVYLEGVERNPVGAGLKVIDHLTHNVYRGRMVYWANFYEKLFNFREARYFDIKGEYTGLTSKAMSAPDGMIRIPLNEESSKGAGQIEEFLMQFNGEGIQHVAFLTDDLVKTWDALKKIGMRFMTAPGDEYYEMLEGRLPDHGEPVDQLQARGILLDGSSVEGDKRLLLQIFSETLMGPVFFEFIQRKGVDGFGPDSFKVLFESVERDQVRRGVLTAD
RESULT: 94

QUERY: Fill in the blank: the reported Residual turnover of 88 (protein, mutant HPPD polypeptide) MADLYENPMGLMGFEFIEFASPTPGTLEPIFEIMGFTKVATHRSKNVHLYRQGEINLILNNEPNSIASYFAAEHGPSVCGMAFRVKDSQKAYNRALELGAQPIHIDTGPMELNLPAIKGIGGAPLYLIDRFGEGSSIYDIDFVYLEGVERNPVGAGLKVIDHLTHNVYRGRMVYWANFYEKLFNFREARYFDIKGEYTGLTSKAMSAPDGMIRIPLNEESSKGAGQIEEFLMQFNGEGIQHVAFLTDDLVKTWDALKKIGMRFMTAPGDEYYEMLEGRLPDHGEPVDQLQARGILLDGSSVEGDKRLLLQIFSETLMGPVFFEFIQRKGDDGFGPDSFKVLFESIERDQVRRGVLTAD is ____.
RESULT: 44

QUERY: Request the reported Residual turnover associated with 33 (protein, mutant HPPD polypeptide) MADLYENPMGLMGFEFIEFASPTPGTLEPIFEIMGFTKVATHRSKNVHLYRQGEINLILNNEPNSIASYFAAEHGPSVCGMAFRVKDSQKAYNRALELGAQPIHIDTGPMELNLPAIKGIGGAPLYLIDRFGEGSSIYDIDFVYLEGVERNPVGAGLKVIDHLTHNVYRGRMVYWANFYEKLFNFREARYFDIKGEYTGLTSKAMSAPDGMIRIPLNEESSKGAGQIEEFLMQFNGEGIQHVAFLTDDLVKTWDALKKIGMRFMTAPGDEYYEMLEGRLPDHGEPVDQLQARGILLDGSSVEGDKRLLLQIFSETLMGPVFFEFIQRKGDDGFGPDSFKRLFESVERDQVRRGVLTAD
RESULT: 65

Further cases:
QUERY: Endpoint output: Residual turnover of 86 (protein, mutant HPPD polypeptide) MADLYENPMGLMGFEFIEFASPTPGTLEPIFEIMGFTKVATHRSKNVHLYRQGEINLILNNEPNSIASYFAAEHGPSVCGMAFRVKDSQKAYNRALELGAQPIHIDTGPMELNLPAIKGIGGAPLYLIDRFGEGSSIYDIDFVYLEGVERNPVGAGLKVIDHLTHNVYRGRMVYWANFYEKLFNFREARYFDIKGEYTGLTSKAMSAPDGMIRIPLNEESSKGAGQIEEFLMQFNGEGIQHVAFLTDDLVKTWDALKKIGMRFMTAPGDEYYEMLEGRLPDHGEPVDQLQARGILLDGSSVEGDKRLLLQIFSETLMGPVFFEFIQRKGDDGFGPDSFKQLFESVERDQVRRGVLTAD . Value?
RESULT: 45
